The values you see were collected from ChEMBL document CHEMBL4513216.

assay.name: Toxicity liver stage against HepG2, at 10uM
Assay type: cell-based
Set-up: test concentration 10 uM, cell line HepG2-A16-CD81EGFP
details: human, HepG2-A16-CD81EGFP cells; read-out: INHIBITION
property.name: cytotoxicity at 10 µM (%)
Number in %, nothing else.

Example results:
compound="COc1cc(CNC(=O)C2CC(=O)N(C(C)C)C2)ccn1 (stereo not drawn)" property_name="cytotoxicity at 10 µM" unit_abbrev=% readout_value=-5.36
compound=CC(=O)N1CCCN(C(=O)c2cnn(-c3ccccc3Cl)c2)CC1 property_name="cytotoxicity at 10 µM" unit_abbrev=% readout_value=-11.4
compound=O=c1[nH][nH]cc1-c1ccnc(NCCCN2CCOCC2)n1 property_name="cytotoxicity at 10 µM" unit_abbrev=% readout_value=3.27
compound=Cc1cc(NC(=O)c2ccc(N3CCOCC3)c(F)c2)[nH]n1 property_name="cytotoxicity at 10 µM" unit_abbrev=% readout_value=-33.9
compound="Cc1cnc(CN(C)C2CCN(CC(=O)Nc3nncs3)C2)o1 (stereo not drawn)" property_name="cytotoxicity at 10 µM" unit_abbrev=% readout_value=1.76

Here is the next item to consider.
-- ask Given the compound Cc1ccc2c(n1)N(CC1CC1)CCN(Cc1cnn(C)c1)C2 , write its reported cytotoxicity at 10 µM.
-- reply -2.91
